The measurements presented in this section are drawn from ChEMBL document CHEMBL5150036.

assay: Drug concentration in ICR mouse brain at 10 mg/kg, po measured after 60 mins by LC-MS/MS analysis; assay type: ADME, organism-based; settings: read-out: Ct
Attribute measured: concentration at 1 h (ng/g)
Give the quantity in ng/g, number only.

- Mol: "Cc1cc2c(c(-c3ccccc3OCC(F)(F)F)n1)CN(c1ccc(C(C)(C)O)cc1)C2=O"
  Test value: 1140

In: Which concentration at 1 h is listed for CC(C)(O)c1ccc(N2Cc3c(cc(C4(C)COC4)nc3-c3ccccc3OCC(F)(F)F)C2=O)cc1 ?
Out: 17

In: Would you mind telling me what concentration at 1 h value was observed for CC(C)(O)c1ccc(N2Cc3c(cc(C4(C)COC4)nc3-c3ccccc3OCC(F)F)C2=O)cc1 ?
Out: 65

----------
test: Drug concentration in ICR mouse plasma at 10 mg/kg, po measured after 60 mins by LC-MS/MS analysis; format: ADME, organism-based
Quick reference for concentration at 1 h among some compounds

Solved entries:
- Mol: "Cc1cc2c(c(-c3ccccc3OCC(F)(F)F)n1)CN(c1ccc(C(C)(C)O)cc1)C2=O"
  concentration at 1 h: "1940 ng/mL"
- Mol: "CC(C)(O)c1ccc(N2Cc3c(cc(C4(C)COC4)nc3-c3ccccc3OCC(F)F)C2=O)cc1"
  concentration at 1 h: "284 ng/mL"

Now, please, on to the next compound.
In: // concentration at 1 h lookup, key: CC(C)(O)c1ccc(N2Cc3c(cc(C4(C)COC4)nc3-c3ccccc3OCC(F)(F)F)C2=O)cc1
Out: 76 ng/mL

----------
Readings of log10(microsomal CLint at 1 µM) for the listed compounds
assay: Metabolic stability in human liver microsomes assessed as intrinsic clearance at 1 uM in the presence of NADPH regenerating system by LC/MS/MS analysis; assay type: ADME, Microsome; settings: read-out: CLH
Use the decimal logarithm of microsomal CLint at 1 µM (µL/min/mg).

In: Which log10(microsomal CLint at 1 µM) is listed for CC(C)(O)c1ccc(N2Cc3c(ccnc3-c3ccccc3OCC(F)F)C2=O)cc1 ?
Out: 1.23

In: // log10(microsomal CLint at 1 µM) lookup, key: CC(C)(O)c1ccc(N2Cc3c(cc(C4(C)COC4)nc3-c3ccccc3OCC(F)(F)F)C2=O)cc1
Out: 1.52

In: Sample CC(C)(O)c1ccc(N2Cc3c(cc(C4CCCCC4)nc3-c3ccccc3OCC(F)F)C2=O)cc1 — what was its log10(microsomal CLint at 1 µM)?
Out: 1.52

In: Item CC(C)(O)c1ccc(N2Cc3c(ccnc3-c3ccccc3OCC(F)(F)F)C2=O)cc1 has what recorded log10(microsomal CLint at 1 µM)?
Out: 1.60

In: What log10(microsomal CLint at 1 µM) value was documented for this compound, CC(C)(O)c1ccc(N2Cc3c(cc(C4CCCOC4)nc3-c3ccccc3OCC(F)F)C2=O)cc1 (racemic) ?
Out: 1.79

In: Would you mind telling me what log10(microsomal CLint at 1 µM) value was observed for CC(C)(O)c1ccc(N2Cc3c(cc(C(C)(C)O)nc3-c3ccccc3OCC(F)F)C2=O)cc1 ?
Out: 0.48

In: GET /values?readout=log10(microsomal CLint at 1 µM)&item= CC(C)(O)c1ccc(N2Cc3c(cc(C4(C)COC4)nc3-c3ccccc3OCC(F)F)C2=O)cc1
Out: 1.20

In: For CC(C)(O)c1ccc(N2Cc3c(cc(C4CCOCC4)nc3-c3ccccc3OCC(F)F)C2=O)cc1 , what is its reported log10(microsomal CLint at 1 µM)?
Out: 0.00
